Target: PAD4 (Homo sapiens)
Construct: made in house
Sequence (Q9UM07 whole entry): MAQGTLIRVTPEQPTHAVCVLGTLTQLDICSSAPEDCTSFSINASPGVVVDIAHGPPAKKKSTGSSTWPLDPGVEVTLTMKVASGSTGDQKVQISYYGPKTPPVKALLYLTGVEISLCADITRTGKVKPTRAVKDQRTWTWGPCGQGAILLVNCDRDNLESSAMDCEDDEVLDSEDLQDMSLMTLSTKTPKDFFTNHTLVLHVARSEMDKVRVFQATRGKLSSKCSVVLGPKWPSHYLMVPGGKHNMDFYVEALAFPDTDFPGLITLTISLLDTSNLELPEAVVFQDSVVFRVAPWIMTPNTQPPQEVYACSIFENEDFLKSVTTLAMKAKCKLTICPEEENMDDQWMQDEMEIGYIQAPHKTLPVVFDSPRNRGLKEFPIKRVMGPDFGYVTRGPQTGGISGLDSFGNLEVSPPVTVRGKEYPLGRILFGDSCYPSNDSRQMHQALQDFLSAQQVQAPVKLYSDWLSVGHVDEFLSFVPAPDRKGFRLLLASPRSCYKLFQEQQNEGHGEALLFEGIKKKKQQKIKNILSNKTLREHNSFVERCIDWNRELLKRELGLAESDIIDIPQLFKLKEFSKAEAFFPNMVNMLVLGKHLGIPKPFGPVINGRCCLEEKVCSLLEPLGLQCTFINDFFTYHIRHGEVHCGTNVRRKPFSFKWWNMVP
Assay: Inactivation kinetics, PAD4
Format: biochemical
Conditions: kinact/KI relative to least inhibited isozyme (1.0)
MEASURED PARAMETER: Fold PAD4 Selectivity (fold)

Below, 3 compounds whose answers are already recorded.
RECORD SMILES	Fold PAD4 Selectivity [fold]
CCN1Cc2cccc(C(=O)N[C@@H](CCCNC(=N)CF)c3nc4c(OC)cccc4[nH]3)c2C1=O	1.0
N=C(CCl)NCCC[C@H](NC(=O)c1ccc(-c2ccc(F)cc2)cc1)c1nc2cc(F)c(F)cc2[nH]1	3.7
CCn1c([C@H](CCCNC(=N)CCl)NC(=O)c2ccccc2C(=O)O)nc2ccccc21	1.2

(I) N=C(CCl)NCCC[C@H](NC(=O)c1ccccc1C(=O)O)c1nc2ccccc2[nH]1
(II) CCN1Cc2cccc(C(=O)N[C@@H](CCCNC(=N)CF)c3nc4ccccc4n3CC)c2C1=O
Incoming: Which of the two items, I and II , has the greater recorded Fold PAD4 Selectivity? Respond with the label that goes with your answer.
Outgoing: I
(I: 9.0 fold, II: 1.0 fold)

---

Target: PAD2 (Homo sapiens, UniProt Q9Y2J8)
Construct: made in house
Sequence (Q9Y2J8 whole entry): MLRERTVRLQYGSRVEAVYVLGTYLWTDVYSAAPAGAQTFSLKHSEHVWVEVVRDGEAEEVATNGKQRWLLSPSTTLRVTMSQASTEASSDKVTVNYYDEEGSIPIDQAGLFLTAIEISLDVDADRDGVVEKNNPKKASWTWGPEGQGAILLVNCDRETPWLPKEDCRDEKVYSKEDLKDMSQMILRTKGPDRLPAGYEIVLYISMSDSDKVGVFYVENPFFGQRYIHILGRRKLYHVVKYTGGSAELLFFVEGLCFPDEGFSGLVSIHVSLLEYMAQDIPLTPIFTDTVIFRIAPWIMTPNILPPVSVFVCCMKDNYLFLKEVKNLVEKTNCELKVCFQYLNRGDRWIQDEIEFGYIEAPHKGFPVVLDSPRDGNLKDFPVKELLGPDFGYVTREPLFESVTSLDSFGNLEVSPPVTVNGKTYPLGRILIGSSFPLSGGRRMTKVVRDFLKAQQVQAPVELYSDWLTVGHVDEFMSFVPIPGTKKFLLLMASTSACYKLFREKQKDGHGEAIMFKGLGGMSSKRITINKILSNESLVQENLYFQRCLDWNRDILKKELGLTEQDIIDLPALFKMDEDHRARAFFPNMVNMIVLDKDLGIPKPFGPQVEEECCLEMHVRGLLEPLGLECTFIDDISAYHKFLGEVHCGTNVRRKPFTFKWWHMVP
Assay: Inactivation kinetics, PAD2
Type: biochemical
Settings: a: single kobs determined; b: from a linear fit; other footnotes: from kinact and KI
MEASURED PARAMETER: kinact/KI (M⁻¹ s⁻¹)

COMPOUND	kinact/KI [M⁻¹ s⁻¹]
COc1ccc2[nH]c([C@H](CCCNC(=N)CF)NC(=O)c3cccc4c3C(=O)NC4)nc2c1 [Compound 7s]	415
CCN1Cc2cccc(C(=O)N[C@@H](CCCNC(=N)CF)c3nc4c(OC)cccc4n3C)c2C1=O [Compound 8k]	6090
COc1cccc2c1nc([C@H](CCCNC(=N)CCl)NC(=O)c1cccc3c1C(=O)NC3)n2C [Compound 7l]	1300
CCn1c([C@H](CCCNC(=N)CF)NC(=O)c2ccc(-c3ccccc3)cc2)nc2ccccc21 [Compound 5i]	19.3
Cn1c([C@H](CCCNC(=N)CCl)NC(=O)c2cccc3c2C(=O)NC3)nc2ccccc21 [Compound 7d]	1220
COc1cccc2c1nc([C@H](CCCNC(=N)CCl)NC(=O)c1cccc3c1C(=O)N(C1CC1)C3)n2C [Compound 8t]	958

(A) Cn1c([C@H](CCCNC(=N)CCl)NC(=O)c2ccccc2C(=O)OC(C)(C)C)nc2ccccc21 [Compound 9b]
(B) CC(C)n1c([C@H](CCCNC(=N)CCl)NC(=O)c2ccccc2C(=O)O)nc2ccccc21 [Compound 6h]
Incoming: Lab log: flag the item ( A or B ) with the smaller kinact/KI figure. Respond with the label that goes with your answer.
Outgoing: A
(A: 55.2 M⁻¹ s⁻¹, B: 452 M⁻¹ s⁻¹)

(a) CCn1c([C@H](CCCNC(=N)CCl)NC(=O)c2ccc(-c3ccccc3)cc2)nc2ccccc21 [Compound 5j]
(b) N=C(CCl)NCCC[C@H](NC(=O)c1ccccc1)c1nc2ccccc2[nH]1 [Compound 5b]
(c) COc1cccc2c1nc([C@H](CCCNC(=N)CCl)NC(=O)c1ccccc1C(=O)O)n2C [Compound 6j]
(d) COc1cccc2[nH]c([C@H](CCCNC(=N)CCl)NC(=O)c3cccc4c3C(=O)NC4)nc12 [Compound 7j]
(e) C#Cc1ccc(-c2ccc(C(=O)N[C@@H](CCCNC(=N)CCl)c3nc4ccccc4[nH]3)cc2)cc1 [Compound 5v]
Incoming: Sort (5 compounds) by kinact/KI: min first. API: response body holds the labels in the requested order.
Outgoing: b, e, a, c, d

---

Target: PAD1 (Homo sapiens, UniProt Q9ULC6)
Construct: made in house
Sequence (Q9ULC6 whole entry): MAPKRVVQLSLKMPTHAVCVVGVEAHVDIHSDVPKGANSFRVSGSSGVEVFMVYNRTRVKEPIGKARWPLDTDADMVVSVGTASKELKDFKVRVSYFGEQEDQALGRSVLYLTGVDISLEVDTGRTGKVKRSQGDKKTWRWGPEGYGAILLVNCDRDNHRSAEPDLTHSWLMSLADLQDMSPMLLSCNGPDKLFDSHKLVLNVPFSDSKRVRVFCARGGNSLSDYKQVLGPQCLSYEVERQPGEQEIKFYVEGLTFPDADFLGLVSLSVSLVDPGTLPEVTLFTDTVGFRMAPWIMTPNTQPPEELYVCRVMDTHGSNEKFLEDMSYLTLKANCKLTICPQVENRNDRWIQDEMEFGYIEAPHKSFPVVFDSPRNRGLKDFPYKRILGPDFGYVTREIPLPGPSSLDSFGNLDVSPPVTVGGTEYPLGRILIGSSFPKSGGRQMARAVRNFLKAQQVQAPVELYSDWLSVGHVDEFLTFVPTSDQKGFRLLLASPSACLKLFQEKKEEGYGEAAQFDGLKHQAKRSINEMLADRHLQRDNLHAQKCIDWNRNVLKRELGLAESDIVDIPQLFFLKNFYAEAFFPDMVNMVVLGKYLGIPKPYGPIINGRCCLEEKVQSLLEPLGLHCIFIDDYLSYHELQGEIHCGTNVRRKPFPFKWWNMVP
Assay: Inactivation kinetics, PAD1
Assay type: biochemical
Conditions: kinact/KI relative to least inhibited isozyme (1.0)
MEASURED PARAMETER: Fold PAD1 Selectivity (fold)

Below, 4 compounds whose answers are already recorded.
RECORD SMILES	UOM	Fold PAD1 Selectivity
C#Cc1ccc(-c2ccc(C(=O)N[C@@H](CCCNC(=N)CF)c3nc4ccccc4[nH]3)cc2)cc1	fold	4.8
CCN1Cc2cccc(C(=O)N[C@@H](CCCNC(=N)CCl)c3nc4ccccc4n3CC)c2C1=O	fold	18
CCN1Cc2cccc(C(=O)N[C@@H](CCCNC(=N)CF)c3nc4c(OC)cccc4[nH]3)c2C1=O	fold	107
N=C(CCl)NCCC[C@H](NC(=O)c1ccc(-c2ccc(F)cc2)cc1)c1nc2ccccc2[nH]1	fold	3.7

(P) CC(C)n1c([C@H](CCCNC(=N)CCl)NC(=O)c2ccccc2C(=O)OC(C)(C)C)nc2ccccc21
(Q) CC(C)n1c([C@H](CCCNC(=N)CCl)NC(=O)c2ccc(-c3ccccc3)cc2)nc2ccccc21
(R) CCn1c([C@H](CCCNC(=N)CF)NC(=O)c2cccc3c2C(=O)NC3)nc2c(OC)cccc21
Incoming: Sort (3 compounds) by Fold PAD1 Selectivity: min first. API: response body holds the labels in the requested order.
Outgoing: Q, P, R

---

Biological target: PAD4 (Homo sapiens)
Construct: made in house
Assay: Inactivation kinetics, PAD4
Format: biochemical
Details: kinact/KI relative to least inhibited isozyme (1.0)
MEASURED PARAMETER: Fold PAD4 Selectivity (fold)

Below, 2 compounds whose answers are already recorded.
RECORD SMILES	Fold PAD4 Selectivity (fold)
CC(C)n1c([C@H](CCCNC(=N)CF)NC(=O)c2cccc3c2C(=O)NC3)nc2ccccc21	2.4
COc1ccc2[nH]c([C@H](CCCNC(=N)CCl)NC(=O)c3cccc4c3C(=O)NC4)nc2c1	2.2

(1) CCN1Cc2cccc(C(=O)N[C@@H](CCCNC(=N)CCl)c3nc4c(OC)cccc4[nH]3)c2C1=O
(2) N=C(CCl)NCCC[C@H](NC(=O)c1cccc2c1C(=O)NC2)c1nc2ccccc2[nH]1
Incoming: Lab log: flag the item ( 1 or 2 ) with the smaller Fold PAD4 Selectivity figure. Respond with the label that goes with your answer.
Outgoing: 1
(1: 1.0 fold, 2: 2.1 fold)

---

Molecular target: PAD2 (Homo sapiens)
Construct: made in house
Assay: Inactivation kinetics, PAD2
Assay type: biochemical
Conditions: a: single kobs determined; b: from a linear fit; other footnotes: from kinact and KI
MEASURED PARAMETER: kinact/KI (M⁻¹ s⁻¹)

Below, 5 molecules whose answers are already recorded.
RECORD SMILES	MEASURED PARAMETER	RESULT VALUE
CCn1c([C@H](CCCNC(=N)CF)NC(=O)c2ccccc2C(=O)OC(C)(C)C)nc2ccccc21	kinact/KI	102
COc1ccc2c(c1)nc([C@H](CCCNC(=N)CCl)NC(=O)c1cccc3c1C(=O)NC3)n2C	kinact/KI	908
N=C(CF)NCCC[C@H](NC(=O)c1ccc(-c2ccccc2)cc1)c1nc2cc(F)c(F)cc2[nH]1	kinact/KI	26.2
N=C(CF)NCCC[C@H](NC(=O)c1cccc2c1C(=O)NC2)c1nc2ccccc2[nH]1	kinact/KI	177
CCn1c([C@H](CCCNC(=N)CF)NC(=O)c2cccc3c2C(=O)NC3)nc2ccccc21	kinact/KI	1030

(a) CC(C)n1c([C@H](CCCNC(=N)CF)NC(=O)c2cccc3c2C(=O)NC3)nc2ccccc21
(b) Cn1c([C@H](CCCNC(=N)CF)NC(=O)c2cccc3c2C(=O)NC3)nc2ccccc21
(c) N=C(CCl)NCCC[C@H](NC(=O)c1ccccc1C(=O)O)c1nc2ccccc2[nH]1
Incoming: Ordering criterion: kinact/KI; begin with the maximum. API: response body holds the labels in the requested order.
Outgoing: b, a, c
(b: 413 M⁻¹ s⁻¹, a: 172 M⁻¹ s⁻¹, c: 57.5 M⁻¹ s⁻¹)

(1) COc1cccc2c1nc([C@H](CCCNC(=N)CF)NC(=O)c1ccc(-c3ccccc3)cc1)n2C
(2) CCn1c([C@H](CCCNC(=N)CF)NC(=O)c2cccc3c2C(=O)NC3)nc2cc(OC)ccc21
Incoming: Which of the two items, 1 and 2 , has the greater recorded kinact/KI? Respond with the label that goes with your answer.
Outgoing: 2
(2: 658 M⁻¹ s⁻¹, 1: 132 M⁻¹ s⁻¹)

(A) CCN1Cc2cccc(C(=O)N[C@@H](CCCNC(=N)CF)c3nc4cc(OC)ccc4n3CC)c2C1=O
(B) Cn1c([C@H](CCCNC(=N)CCl)NC(=O)c2ccc(-c3ccccc3)cc2)nc2ccccc21
(C) CC(C)n1c([C@H](CCCNC(=N)CF)NC(=O)c2ccc(-c3ccccc3)cc2)nc2ccccc21
(D) COc1cccc2c1nc([C@H](CCCNC(=N)CCl)NC(=O)c1cccc3c1C(=O)N(C)C3)n2C
Incoming: Sort (4 molecules) by kinact/KI: min first. API: response body holds the labels in the requested order.
Outgoing: C, B, A, D
(C: 11.3 M⁻¹ s⁻¹, B: 40.5 M⁻¹ s⁻¹, A: 630 M⁻¹ s⁻¹, D: 1160 M⁻¹ s⁻¹)

(I) CCN1Cc2cccc(C(=O)N[C@@H](CCCNC(=N)CF)c3nc4ccccc4n3C(C)C)c2C1=O
(II) CCn1c([C@H](CCCNC(=N)CF)NC(=O)c2ccccc2C(=O)O)nc2ccccc21
Incoming: Lab log: flag the item ( I or II ) with the smaller kinact/KI figure. Respond with the label that goes with your answer.
Outgoing: I
(I: 173 M⁻¹ s⁻¹, II: 527 M⁻¹ s⁻¹)

Entry source: patent US11208386B2
